Target: UniProt P35367
Sequence (P35367 whole entry): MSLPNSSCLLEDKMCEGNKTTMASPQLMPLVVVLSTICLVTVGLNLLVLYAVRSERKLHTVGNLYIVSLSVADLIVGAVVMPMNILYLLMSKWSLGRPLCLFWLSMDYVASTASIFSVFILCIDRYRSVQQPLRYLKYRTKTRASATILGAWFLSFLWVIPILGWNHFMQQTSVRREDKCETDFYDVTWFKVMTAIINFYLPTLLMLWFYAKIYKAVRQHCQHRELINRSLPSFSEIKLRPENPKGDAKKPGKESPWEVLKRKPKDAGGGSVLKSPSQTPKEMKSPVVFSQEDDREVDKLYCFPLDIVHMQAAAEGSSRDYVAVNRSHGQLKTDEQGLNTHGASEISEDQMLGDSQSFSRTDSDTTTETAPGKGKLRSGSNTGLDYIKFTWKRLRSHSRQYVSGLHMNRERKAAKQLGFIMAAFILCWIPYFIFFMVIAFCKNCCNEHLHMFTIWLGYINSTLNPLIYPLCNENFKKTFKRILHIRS
Assay: Inhibition of histamine H1 receptor (unknown origin) at 10 uM relative to control
# inhibition values compiled below
Use % as the unit, but write only the number.

Cl.NCc1ccc(OCc2ccc(OC(F)(F)F)cc2)cc1 ... 14.7
Cl.NCc1ccc(OCc2ccccc2)cc1 ... 7.6
Cl.NCc1ccc(OCc2cccc(F)c2)cc1 ... 5.2
Cl.NCc1ccc(OCc2ccc(F)cc2)cc1 ... -5.8

// query inhibition value for entry `Cl.NCc1ccc(OCc2cccc(OC(F)(F)F)c2)cc1`
12.1

// query inhibition value for entry `Cl.NCc1ccc(OCc2ccccc2F)cc1`
6.7

// query inhibition value for entry `Cl.NCc1ccc(OCc2cccc(Cl)c2)cc1`
1.4

// query inhibition value for entry `Cl.NCc1ccc(OCc2ccccc2OC(F)(F)F)cc1`
15.6

// query inhibition value for entry `Cl.NCc1ccc(OCc2ccc(Cl)cc2)cc1`
0.3

---

Target: Histamine H3 receptor (Homo sapiens) (UniProt Q9Y5N1)
Sequence (Q9Y5N1 whole entry): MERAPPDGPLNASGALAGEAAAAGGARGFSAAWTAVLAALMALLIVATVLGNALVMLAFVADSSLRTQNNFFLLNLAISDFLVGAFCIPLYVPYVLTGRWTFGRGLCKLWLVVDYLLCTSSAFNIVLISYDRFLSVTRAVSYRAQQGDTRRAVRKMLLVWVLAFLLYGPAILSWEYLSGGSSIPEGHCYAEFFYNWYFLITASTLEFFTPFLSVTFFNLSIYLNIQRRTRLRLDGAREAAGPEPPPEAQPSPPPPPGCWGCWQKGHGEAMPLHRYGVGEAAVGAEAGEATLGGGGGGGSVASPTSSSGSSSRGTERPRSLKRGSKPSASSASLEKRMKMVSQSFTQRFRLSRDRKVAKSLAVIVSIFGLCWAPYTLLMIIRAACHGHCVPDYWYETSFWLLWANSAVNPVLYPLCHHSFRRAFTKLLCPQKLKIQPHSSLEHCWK
Assay: Inhibition of histamine H3 receptor (unknown origin) at 10 uM relative to control
Would you please tag the item Met when its inhibition is 20% or above, and Not met when it is below?

Solved cases (5 shown):
Cl.NCc1ccc(OCc2ccccc2F)cc1 ... Not met
Cl.NCc1ccc(OCc2ccc(OC(F)(F)F)cc2)cc1 ... Met
Cl.NCc1ccc(OCc2cccc(Cl)c2)cc1 ... Not met
Cl.NCc1ccc(OCc2cccc(OC(F)(F)F)c2)cc1 ... Met
Cl.NCc1ccc(OCc2ccccc2)cc1 ... Not met

Quick check, inhibition >= 20%? `Cl.NCc1ccc(OCc2ccc(F)cc2)cc1`
Met

Quick check, inhibition >= 20%? `Cl.NCc1ccc(OCc2ccc(Cl)cc2)cc1`
Met

Quick check, inhibition >= 20%? `Cl.NCc1ccc(OCc2ccccc2OC(F)(F)F)cc1`
Not met

Quick check, inhibition >= 20%? `Cl.NCc1ccc(OCc2cccc(F)c2)cc1`
Not met

---

Target: 5-hydroxytryptamine receptor 2B (Homo sapiens) (UniProt P41595)
Sequence (P41595 whole entry): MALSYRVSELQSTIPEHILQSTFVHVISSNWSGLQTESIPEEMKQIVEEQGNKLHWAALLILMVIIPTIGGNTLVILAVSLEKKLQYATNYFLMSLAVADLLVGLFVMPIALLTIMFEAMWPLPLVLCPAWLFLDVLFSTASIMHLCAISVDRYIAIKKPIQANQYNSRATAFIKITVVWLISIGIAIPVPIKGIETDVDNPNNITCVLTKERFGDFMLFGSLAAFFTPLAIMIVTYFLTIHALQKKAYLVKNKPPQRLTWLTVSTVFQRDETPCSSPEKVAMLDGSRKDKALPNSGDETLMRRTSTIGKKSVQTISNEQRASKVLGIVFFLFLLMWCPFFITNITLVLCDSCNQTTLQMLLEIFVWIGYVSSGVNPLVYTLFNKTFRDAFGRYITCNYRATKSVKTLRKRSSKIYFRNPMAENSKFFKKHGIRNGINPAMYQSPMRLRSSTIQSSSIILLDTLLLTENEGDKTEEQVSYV
Assay: Inhibition of 5-HT2B receptor (unknown origin) at 10 uM relative to control
readout: inhibition (%)
Use % as the unit, but write only the number.

Some solved cases for reference:
Cl.NCc1ccc(OCc2cccc(Cl)c2)cc1 ... 39.8
Cl.NCc1ccc(OCc2ccccc2F)cc1 ... 82.4
Cl.NCc1ccc(OCc2ccc(Cl)cc2)cc1 ... 40.6
Cl.NCc1ccc(OCc2ccccc2)cc1 ... 55.7

// query inhibition value for entry `Cl.NCc1ccc(OCc2ccccc2OC(F)(F)F)cc1`
49

// query inhibition value for entry `Cl.NCc1ccc(OCc2cccc(F)c2)cc1`
87.3

// query inhibition value for entry `Cl.NCc1ccc(OCc2cccc(OC(F)(F)F)c2)cc1`
51.4

// query inhibition value for entry `Cl.NCc1ccc(OCc2ccc(F)cc2)cc1`
46.5

// query inhibition value for entry `Cl.NCc1ccc(OCc2ccc(OC(F)(F)F)cc2)cc1`
34.4

---

Biological target: 5-hydroxytryptamine receptor 1D (Homo sapiens) (UniProt P28221)
Sequence (P28221 whole entry): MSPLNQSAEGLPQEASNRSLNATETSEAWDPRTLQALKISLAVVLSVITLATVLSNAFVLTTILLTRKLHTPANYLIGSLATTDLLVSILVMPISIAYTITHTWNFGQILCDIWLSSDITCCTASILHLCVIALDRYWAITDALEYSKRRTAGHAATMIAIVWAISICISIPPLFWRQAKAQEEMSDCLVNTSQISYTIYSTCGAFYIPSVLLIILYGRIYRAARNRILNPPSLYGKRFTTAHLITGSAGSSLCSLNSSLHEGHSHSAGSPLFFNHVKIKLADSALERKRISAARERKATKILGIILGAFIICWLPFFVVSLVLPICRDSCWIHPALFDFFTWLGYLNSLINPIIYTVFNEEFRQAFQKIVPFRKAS
Test: Inhibition of 5-HT1D receptor (unknown origin) at 10 uM relative to control
readout: inhibition (%)
Use % as the unit, but write only the number.

Cl.NCc1ccc(OCc2ccccc2)cc1 ... -3.3
Cl.NCc1ccc(OCc2cccc(OC(F)(F)F)c2)cc1 ... 12.3
Cl.NCc1ccc(OCc2cccc(Cl)c2)cc1 ... -0.7

I'm curious: which inhibition was measured for `Cl.NCc1ccc(OCc2ccc(OC(F)(F)F)cc2)cc1` tested on 5-hydroxytryptamine receptor 1D (Homo sapiens) (UniProt P28221)?
4.9

I'm curious: which inhibition was measured for `Cl.NCc1ccc(OCc2ccc(Cl)cc2)cc1` tested on 5-hydroxytryptamine receptor 1D (Homo sapiens) (UniProt P28221)?
1.6

I'm curious: which inhibition was measured for `Cl.NCc1ccc(OCc2ccccc2OC(F)(F)F)cc1` tested on 5-hydroxytryptamine receptor 1D (Homo sapiens) (UniProt P28221)?
0.5

I'm curious: which inhibition was measured for `Cl.NCc1ccc(OCc2ccc(F)cc2)cc1` tested on 5-hydroxytryptamine receptor 1D (Homo sapiens) (UniProt P28221)?
12.7

---

Molecular target: Alpha-1A adrenergic receptor (Homo sapiens) (UniProt P35348)
Sequence (whole entry): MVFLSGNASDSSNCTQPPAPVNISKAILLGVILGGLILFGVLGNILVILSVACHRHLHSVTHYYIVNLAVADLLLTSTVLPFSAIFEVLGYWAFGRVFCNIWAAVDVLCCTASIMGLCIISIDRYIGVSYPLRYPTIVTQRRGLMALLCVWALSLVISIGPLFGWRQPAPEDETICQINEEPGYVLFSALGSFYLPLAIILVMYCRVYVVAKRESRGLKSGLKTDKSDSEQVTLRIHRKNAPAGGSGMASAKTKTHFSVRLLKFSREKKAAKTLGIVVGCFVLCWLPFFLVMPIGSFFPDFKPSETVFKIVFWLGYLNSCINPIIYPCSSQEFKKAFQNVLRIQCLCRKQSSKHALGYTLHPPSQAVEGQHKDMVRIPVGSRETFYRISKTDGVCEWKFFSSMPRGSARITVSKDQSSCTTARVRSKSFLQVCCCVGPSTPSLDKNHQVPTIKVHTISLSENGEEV
Test: Inhibition of adrenergic alpha-1A receptor (unknown origin) at 10 uM relative to control
readout: inhibition (%)
Use % as the unit, but write only the number.

Cl.NCc1ccc(OCc2ccc(F)cc2)cc1 ... -7.5

I'm curious: which inhibition was measured for `Cl.NCc1ccc(OCc2ccccc2)cc1` tested on Alpha-1A adrenergic receptor (Homo sapiens) (UniProt P35348)?
12.8

I'm curious: which inhibition was measured for `Cl.NCc1ccc(OCc2ccc(Cl)cc2)cc1` tested on Alpha-1A adrenergic receptor (Homo sapiens) (UniProt P35348)?
-9.4

I'm curious: which inhibition was measured for `Cl.NCc1ccc(OCc2ccccc2OC(F)(F)F)cc1` tested on Alpha-1A adrenergic receptor (Homo sapiens) (UniProt P35348)?
-9.7

---

Target: 5-hydroxytryptamine receptor 2A (Homo sapiens)
Assay: Inhibition of 5-HT2A receptor (unknown origin) at 10 uM relative to control
readout: inhibition (%)
Use % as the unit, but write only the number.

Cl.NCc1ccc(OCc2cccc(F)c2)cc1 ... 88.6

// query inhibition value for entry `Cl.NCc1ccc(OCc2cccc(Cl)c2)cc1`
88.2

// query inhibition value for entry `Cl.NCc1ccc(OCc2ccccc2OC(F)(F)F)cc1`
73.8

// query inhibition value for entry `Cl.NCc1ccc(OCc2cccc(OC(F)(F)F)c2)cc1`
88

// query inhibition value for entry `Cl.NCc1ccc(OCc2ccc(OC(F)(F)F)cc2)cc1`
94.7

// query inhibition value for entry `Cl.NCc1ccc(OCc2ccc(Cl)cc2)cc1`
92.6

// query inhibition value for entry `Cl.NCc1ccc(OCc2ccc(F)cc2)cc1`
77.1

// query inhibition value for entry `Cl.NCc1ccc(OCc2ccccc2F)cc1`
75.7

// query inhibition value for entry `Cl.NCc1ccc(OCc2ccccc2)cc1`
76.8

---

# inhibition values compiled below
Molecular target: Muscarinic acetylcholine receptor M4 (Homo sapiens) (UniProt P08173)
Sequence (P08173 whole entry): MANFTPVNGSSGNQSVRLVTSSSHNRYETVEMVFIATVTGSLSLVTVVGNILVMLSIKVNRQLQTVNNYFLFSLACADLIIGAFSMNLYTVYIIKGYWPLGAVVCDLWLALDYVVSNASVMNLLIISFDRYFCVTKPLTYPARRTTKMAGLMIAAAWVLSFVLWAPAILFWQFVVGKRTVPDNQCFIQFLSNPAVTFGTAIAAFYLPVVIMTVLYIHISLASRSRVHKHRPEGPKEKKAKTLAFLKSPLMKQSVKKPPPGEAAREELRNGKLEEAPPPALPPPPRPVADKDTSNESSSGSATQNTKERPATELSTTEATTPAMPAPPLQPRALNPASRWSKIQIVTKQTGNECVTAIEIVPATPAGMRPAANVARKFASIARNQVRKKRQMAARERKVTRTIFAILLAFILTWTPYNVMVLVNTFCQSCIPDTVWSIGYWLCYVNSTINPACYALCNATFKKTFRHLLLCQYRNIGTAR
Experiment: Inhibition of muscarinergic M4 receptor (unknown origin) at 10 uM relative to control
Use % as the unit, but write only the number.

Some solved cases for reference:
Cl.NCc1ccc(OCc2ccccc2F)cc1 ... -9
Cl.NCc1ccc(OCc2cccc(Cl)c2)cc1 ... 0.2
Cl.NCc1ccc(OCc2cccc(OC(F)(F)F)c2)cc1 ... 4.3
Cl.NCc1ccc(OCc2ccc(OC(F)(F)F)cc2)cc1 ... -4.7
Cl.NCc1ccc(OCc2ccccc2OC(F)(F)F)cc1 ... 1.6
Cl.NCc1ccc(OCc2ccc(F)cc2)cc1 ... 10.4

Next up:
// query inhibition value for entry `Cl.NCc1ccc(OCc2ccc(Cl)cc2)cc1`
3.5

---

Target: Translocator protein (Homo sapiens) (UniProt P30536)
Sequence (P30536 whole entry): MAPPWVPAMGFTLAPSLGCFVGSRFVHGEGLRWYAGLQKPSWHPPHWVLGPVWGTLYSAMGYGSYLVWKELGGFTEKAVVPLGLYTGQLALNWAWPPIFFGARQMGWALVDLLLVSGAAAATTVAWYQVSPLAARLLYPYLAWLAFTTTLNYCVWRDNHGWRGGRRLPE
Assay: Inhibition of PBR (unknown origin) at 10 uM relative to control
Would you please tag the item Condition met when its inhibition is 10% or above, and Condition not met when it is below?

Solved cases (3 shown):
Cl.NCc1ccc(OCc2ccccc2F)cc1 ... Condition met
Cl.NCc1ccc(OCc2cccc(F)c2)cc1 ... Condition met
Cl.NCc1ccc(OCc2ccc(OC(F)(F)F)cc2)cc1 ... Condition not met

Quick check, inhibition >= 10%? `Cl.NCc1ccc(OCc2ccc(F)cc2)cc1`
Condition not met

Quick check, inhibition >= 10%? `Cl.NCc1ccc(OCc2ccccc2OC(F)(F)F)cc1`
Condition not met

Quick check, inhibition >= 10%? `Cl.NCc1ccc(OCc2ccccc2)cc1`
Condition met

---

Biological target: 5-hydroxytryptamine receptor 1E (Homo sapiens) (UniProt P28566)
Sequence (P28566 whole entry): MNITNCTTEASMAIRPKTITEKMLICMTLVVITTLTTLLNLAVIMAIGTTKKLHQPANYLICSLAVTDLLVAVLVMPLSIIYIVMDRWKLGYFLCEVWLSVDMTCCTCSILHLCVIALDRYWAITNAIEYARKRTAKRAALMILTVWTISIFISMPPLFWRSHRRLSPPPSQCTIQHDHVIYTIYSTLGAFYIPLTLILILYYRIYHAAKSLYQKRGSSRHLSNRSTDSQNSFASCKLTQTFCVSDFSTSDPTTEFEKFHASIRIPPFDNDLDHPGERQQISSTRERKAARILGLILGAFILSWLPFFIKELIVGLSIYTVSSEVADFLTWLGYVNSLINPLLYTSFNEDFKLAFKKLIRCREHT
Test: Inhibition of 5-HT1E receptor (unknown origin) at 10 uM relative to control
readout: inhibition (%)
Use % as the unit, but write only the number.

Some solved cases for reference:
Cl.NCc1ccc(OCc2ccc(OC(F)(F)F)cc2)cc1 ... -6.9
Cl.NCc1ccc(OCc2ccccc2OC(F)(F)F)cc1 ... -5.2
Cl.NCc1ccc(OCc2ccc(Cl)cc2)cc1 ... 2.7

Next up:
// query inhibition value for entry `Cl.NCc1ccc(OCc2ccccc2F)cc1`
-6.6

Value source: ChEMBL document CHEMBL3091364
